# protocol: In vivo biodistribution and regional brain uptake in rats
# condition: male SD rats, i.v., 5 min p.i.
parameter: Biodistribution, blood (%ID/gram)

{"columns": ["compound", "recorded.result"],
 "data": [
  ["Cn1ncc(-c2ccncc2)c1-c1ccc(OCc2cc(O[11CH3])c3ccccc3n2)cc1 [[^11C]4]", 0.099],
  ["Cn1cc(-c2ccncc2)c(-c2ccc(OCc3cc(O[11CH3])c4ccccc4n3)cc2)n1 [[^11C]2]", 0.268],
  ["Cn1cc(-c2ccncc2)c(-c2ccc(OCc3ccc4cc(O[11CH3])ccc4n3)cc2)n1 [[^11C]3]", 0.282],
  ["Cn1cc(-c2ccncc2)c(-c2ccc(OCc3nc4ccccc4cc3O[11CH3])cc2)n1 [[^11C]1]", 0.679]
]}

====

# protocol: In vivo biodistribution and regional brain uptake in rats
# condition: male SD rats, i.v., 30 min p.i. (control)

{"columns": ["compound", "Biodistribution, lung [%ID/gram]"],
 "data": [
  ["Cn1ncc(-c2ccncc2)c1-c1ccc(OCc2cc(O[11CH3])c3ccccc3n2)cc1 [[^11C]4]", 0.156],
  ["Cn1cc(-c2ccncc2)c(-c2ccc(OCc3cc(O[11CH3])c4ccccc4n3)cc2)n1 [[^11C]2]", 0.233],
  ["Cn1cc(-c2ccncc2)c(-c2ccc(OCc3nc4ccccc4cc3O[11CH3])cc2)n1 [[^11C]1]", 0.408],
  ["Cn1cc(-c2ccncc2)c(-c2ccc(OCc3ccc4cc(O[11CH3])ccc4n3)cc2)n1 [[^11C]3]", 0.389]
]}

====

# protocol: In vivo biodistribution and regional brain uptake in rats
# condition: male SD rats, i.v., 60 min p.i.
parameter: Biodistribution, cerebellum

{"columns": ["molecule", "recorded.result"],
 "data": [
  ["Cn1cc(-c2ccncc2)c(-c2ccc(OCc3cc(O[11CH3])c4ccccc4n3)cc2)n1 [[^11C]2]", "0.046 ± 0.014 %ID/gram"],
  ["Cn1cc(-c2ccncc2)c(-c2ccc(OCc3nc4ccccc4cc3O[11CH3])cc2)n1 [[^11C]1]", "0.064 ± 0.006 %ID/gram"],
  ["Cn1cc(-c2ccncc2)c(-c2ccc(OCc3ccc4cc(O[11CH3])ccc4n3)cc2)n1 [[^11C]3]", "0.066 ± 0.008 %ID/gram"],
  ["Cn1ncc(-c2ccncc2)c1-c1ccc(OCc2cc(O[11CH3])c3ccccc3n2)cc1 [[^11C]4]", "0.015 ± 0.003 %ID/gram"]
]}

====

Listing: Biodistribution, total brain of selected compounds
# protocol: In vivo biodistribution and regional brain uptake in rats
# condition: male SD rats, i.v., 5 min p.i.
parameter: Biodistribution, total brain (%ID/gram)

{"columns": ["compound", "parameter", "readout.units", "recorded.result"],
 "data": [
  ["Cn1cc(-c2ccncc2)c(-c2ccc(OCc3ccc4cc(O[11CH3])ccc4n3)cc2)n1 [[^11C]3]", "Biodistribution, total brain", "%ID/gram", 0.249],
  ["Cn1ncc(-c2ccncc2)c1-c1ccc(OCc2cc(O[11CH3])c3ccccc3n2)cc1 [[^11C]4]", "Biodistribution, total brain", "%ID/gram", 0.091],
  ["Cn1cc(-c2ccncc2)c(-c2ccc(OCc3cc(O[11CH3])c4ccccc4n3)cc2)n1 [[^11C]2]", "Biodistribution, total brain", "%ID/gram", 0.210],
  ["Cn1cc(-c2ccncc2)c(-c2ccc(OCc3nc4ccccc4cc3O[11CH3])cc2)n1 [[^11C]1]", "Biodistribution, total brain", "%ID/gram", 0.231]
]}
